Tested on: THP-1 cells
Experiment: Protein analysis of PMA-differentiated THP-1 cells (Western blot)
Type: cell-based, human
Settings: 1 h pretreatment before 40 nM PMA, BAPTA 10 μM, calpeptin 100 μM, Cl-amidine 25 μM, Z-DEVD-FMK 10 μM, VX-765 10 μM
quantity-name: caspase-1 processing to p10 fragment

N=C(CCl)NCCC[C@H](NC(=O)c1ccccc1)C(N)=O : prevented
COC(=O)CC[C@H](NC(=O)[C@H](CC(=O)OC)NC(=O)OCc1ccccc1)C(=O)N[C@H](C(=O)N[C@@H](CC(=O)OC)C(=O)CF)C(C)C : prevented
CCO[C@@H]1OC(=O)C[C@@H]1NC(=O)[C@@H]1CCCN1C(=O)[C@@H](NC(=O)c1ccc(N)c(Cl)c1)C(C)(C)C : prevented
